# TESTED ON: MAST2, Q6P0Q8
# Sequence (Q6P0Q8 1099-1202): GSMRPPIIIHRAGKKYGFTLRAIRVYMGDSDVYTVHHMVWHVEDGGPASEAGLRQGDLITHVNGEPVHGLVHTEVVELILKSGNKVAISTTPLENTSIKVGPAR
# ASSAY REMARKS: holdup assay
# Parameters: key: below the threshold = too weak to quantify, mostly under pKd 3.1 to 4
# TEST CONDITIONS: plain residues with an end cap or a label only (N-terminal biotin on a linker: ahx)
Think of 5 as a floor: if pKd stands on it or above, it is Condition met; beneath it, Condition not met.

Worked set:
>  <BINDER>
TQKFRASTAL [FRMPD1, Q5SYB0]

>  <GROUP>
Condition met

$$$$
>  <BINDER>
HTHSYIETHV [CNKSR2, Q8WXI2]

>  <GROUP>
Condition met

$$$$
>  <BINDER>
QDEKVKESYV [ABCA1, O95477]

>  <GROUP>
Condition not met

$$$$

Now examine the next entry.
Request: Does QPRTWLQSPV [RTKN, Q9BST9] have a reported pKd of at least 5?
Result: Condition not met

Data provenance is paper PMC9482650.
